tested_on: IGF1R Ba/F3 (Homo sapiens)
Sequence (P08069 999-1274 limits assumed): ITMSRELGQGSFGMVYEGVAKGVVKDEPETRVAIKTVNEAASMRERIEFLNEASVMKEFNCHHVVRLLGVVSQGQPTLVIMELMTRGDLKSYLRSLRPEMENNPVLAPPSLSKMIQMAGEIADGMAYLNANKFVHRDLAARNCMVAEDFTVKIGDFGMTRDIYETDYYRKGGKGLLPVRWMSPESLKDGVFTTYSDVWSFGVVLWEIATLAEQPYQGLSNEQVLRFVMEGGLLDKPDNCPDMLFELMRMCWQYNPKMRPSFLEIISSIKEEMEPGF
experiment_summary: Ba/F3 Cell Viability Inhibition Assay (Tel-TK transformed Ba/F3 lines)
Type: cell-based, murine
Parameters: the printed alternative
assay_conditions: Tel-TK (IGF1R) transformed Ba/F3 cells, 48 hours incubation, cell viability (Britelite luminescence)
pIC50: −log10 of the molar value.
Strictly below 7 in pIC50: Y. Otherwise: N.

- molecule: "Cc1cc(Nc2nc(Nc3cc(C)c(C(=O)N(C)C)cc3C)ncc2Cl)n[nH]1"
  assigned_label: "Y"
- molecule: "Cc1ccc(-c2cc(C)c(Nc3ncc(Cl)c(Nc4cc(C)[nH]n4)n3)cc2C)cn1"
  assigned_label: "N"
- molecule: "Cc1cc(Nc2nc(Nc3cc(C)c(C4CCC(=NO)CC4)cc3C)ncc2Cl)n[nH]1 (stereo not shown)"
  assigned_label: "N"
- molecule: "O=C1NCc2cc(F)c(Nc3ncc(Cl)c(Nc4cc(C5CC5)[nH]n4)n3)cc21"
  assigned_label: "Y"
- molecule: "Cc1cc(Nc2nc(Nc3cc(C)c([C@H]4CC[C@H](N5CCCCC5)CC4)cc3F)ncc2Cl)n[nH]1"
  assigned_label: "N"
- molecule: "Cc1cc(Nc2nc(Nc3cc(C)c(-c4ncc[nH]4)cc3F)ncc2Cl)n[nH]1"
  assigned_label: "Y"

Where do these numbers come from? They come from patent US8445505B2.
